B1: tRNA (parent)
chain: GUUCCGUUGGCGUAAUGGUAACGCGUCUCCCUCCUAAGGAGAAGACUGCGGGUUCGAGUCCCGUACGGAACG

Variants of: B1
EXPERIMENT NOTES: yeast fitness relative to wild type (ratio to wild type); higher = fitter; tRNA-Arg(CCU), competitive growth, 37 C, YPD
Fewer inactive variants are shown than the library holds.
VALUE KIND: yeast fitness

In [3]: df
Out[3]:
                               sequence_text  censor_symbol  meas_value
 0  GUUCCGUUGGCGUAAAGGUAACGCGUCUCCCUCCUAGGGAGAAAACUGCGGGUUCGAGUCCCGUACGGUACG [U16A A37G G44A A69U]              ≤         0.5
 1  GUUCCGUUGGCGUAAUGGUAACGCGUCUCCCUCCUAAGGAGAAGACUGCGGGCUCGAGUCCCGUACAGAACG [U53C G67A]              =       0.808
 2  GUUCCGUUGGCGUAAUGGUAACGCGUCUCUCUCCUAAGGAGAAGACUGCGGGUUCGAGUCCCGUAUGGAACG [C30U C66U]              =       0.777
 3  GUUCCGUUGGCGUAAUGGUAACGCGUCUCCCUUCUAAGAAGAAGACUGCGGGUUCGAGUCCCGUACGGAACG [C33U G39A]              =       0.626
 4  GUUCCGUUGGCCUAAUGGUAACGCGUCUCCUUCCUAAGGAGAAGACUGCGGGUUCGAGUCCGGUACGGAACG [G12C C31U C62G]              =       0.557
 5  GUUCCGUUGGCGUAAUCGUAACUCGUCACCGUCCUAAGGAGAAGACUGCGGGUUCGAGUCCCGUACGGAACG [G17C G23U U28A C31G]              =       0.655
 6  GUUCCGUUGGCGUGAUGGUAACGCGUCUCACUCAUAAGGAGACGACUGCGGGUUCGAGUCCUGUACGGAACG [A14G C30A C34A A43C C62U]              ≤         0.5
 7  GUUCCGUUGGCGUGAUGGUAACGCGUCUGCCUCCUAAGGAGAAGACUGCGGGUUCGAGUCCCGUACGGAACG [A14G C29G]              =       0.564
 8  GUUCCGUUGGCGUAAUGGUAACGACUCUCCCUCCUAAGGAGAAGACAGCGGGUUCGAGUCCCGUACGGAACG [C24A G25C U47A]              ≤         0.5
 9  GUUCCGUUGGCGUAAUGGUAACGUGUCUCCCUCCUAAGGAGAAGACUGGGGGUUCGAGUCCCGUAAGGAACG [C24U C49G C66A]              =       0.593
10  GUUCCGGUGGCGUAAUGGUAUCGCGUCUACCUCCUAAGGAGAAGACUGCGGGUUAGAGUCCCGUACGGUACG [U7G A21U C29A C55A A69U]              ≤         0.5
11  GUUCGGUUGGCGUAAUGGUAACGCGUCUCCCUCCUGAGGAGAACACUGCGGGUUCGAGUCCCGUACGGAACG [C5G A36G G44C]              =       0.672
12  GUUCCGUUGGCGUAAUGGUAACGCGCCUCCCUCCUAAGGAGAAGACUGCGGGUUCGAAUCCCGUACGGAACG [U26C G58A]              =           1
13  GUUCCCUCGGCGUAAUGGUAACGCGUCUCCCUCCUAAGGAGGAGACUGCGGGUUCGAGUCCCGUACGGAACG [G6C U8C A42G]              =       0.575
14  GUUCCGCUGGCGUAAUGGUAACGCGUCUCCCUCCUAAGGAGAAGACUGCGGGUUCGAGUACCGUACGGAACG [U7C C60A]              =       0.674
15  GGUCCGUUGGCGUAAUGGUAACGCGUCUCCCUCCUAAGGAGAAGAAUGCGGGUUCGAGUCCCGUACGCAACG [U2G C46A G68C]              ≤         0.5
16  GUUCCGUUGGCGUAAUGGUAACGCGUGUCCCUCCUAAAGAGAAGACUGCGGGUUCGAGUCCCGUACGGAUCG [C27G G38A A70U]              ≤         0.5
17  GUUCCGUUGGCGUAAUGGUAACGCGUCUCCCUCCUUAGGAGAAGACUACGGGUUCGAGUCCCGUACGGAACG [A36U G48A]              =       0.657
18  GUUCCGUUGGCGUAAUGGUAAGGCGUCUCCCUCCUAAGGAGAAGACUGCGGGUUCGAGUCCCGUACAGAACG [C22G G67A]              =       0.819
19  GUUCCGUUGGCAUAAUGGCAACGCGUCUCCCUCGUAAGGAGAAGACUGCGGGUUCGAGUCCCGUAUGGUACG [G12A U19C C34G C66U A69U]              =        0.59
20  GUUCAGUUGGCGUAAUGGUACCGCGUCUCCCUCCUAAGGAGAAGACUGCGGGUCCGAGUCCCGUACGGAACG [C5A A21C U54C]              ≤         0.5
21  GUUCCGUUGGCGUUAUCGUAACGAGUCUCGCUCCUAAGGAGAAGACUGCGGGUUCGGGUCCCGUACGGAACG [A14U G17C C24A C30G A57G]              ≤         0.5
22  GUUCCGUUGGCGUAAUGGUAAGGCGUCUCCCUCCUAACGAGAAGACUGCGGGUUCGAGUCCCGUACGGAACG [C22G G38C]              =       0.775
23  GUACCGUUGGCGUAGUGGUAACGCGUCUCCCUCCUAAGGAGAAGACUCCGGGUUCGAGUCCCGUACGGAACG [U3A A15G G48C]              =       0.595
24  GUUCCGUUGGCGUAAUGGUAACGCGUCUCCCUCCUAAGGAGAAGACUGGGGGUUCGAGUCCAGUACGGAACG [C49G C62A]              =       0.845
25  GUUCCGUUGGCGUAAUGGUAACGCGUCUCCCUCCUAAGAAGAAGACUGCGGGUUCGAGUCCCGUACGAAACG [G39A G68A]              =       0.853
26  GUUCCGUUGCCGUAAUGGUAACGCGUUUCCCUCCUAAGGUGAAGUCUGCGGGUUCGAGUCCCGUACGGAACG [G10C C27U A40U A45U]              ≤         0.5
27  GUUCCGUUGGCGCAGUGGUAACGCGUCUCCCUCCUAAGAAGAAGACUGCGGGUUCGAGUCCCGUACGGAACG [U13C A15G G39A]              =       0.593
28  GUUCCAUUCGGGUAAUGGUAACGCGUCUCCCUCUUAAGGAGAAGACUGCGGGUUCGUGUCCCGUACGGAACG [G6A G9C C11G C34U A57U]              ≤         0.5
29  GUUCCGUUGGUGUAAUGGUAACGCGUCUCCCUCCUAAGGAGAAGACUGCAGGUUCGAGUCCCGUACGGAACG [C11U G50A]              =        0.81
30  GUUCCGUUGGCGUAAUGGUAACGCGUCUCCCUCCUAUGGAGAAAACUGCGGGUUCGCGUCGCGUACGGAACG [A37U G44A A57C C61G]              =       0.625
31  GUUCCCUUGGCGUAAUGGUCACGCGUCUCCCUCCUAAGGAGAAGACUGCGGGUUCGAGUCCCGUACGGAACG [G6C A20C]              =       0.773
32  GUUCUGUGGGCGUAAUGGUAACGCGUCCCCCUCCUGAGGAGAAGACUGCGGGUUCGAGUCCCGUACGGAACG [C5U U8G U28C A36G]              ≤         0.5
33  GUUCCGUUGGCGUACUGGUAACGCGUCUCCCUCCUAAGGAGAAGACAGCGGAUUCGAGUCCCGUACGGAACG [A15C U47A G52A]              =       0.576
34  GUUCCGGUGGCGUAAUGGUAUCGCGUCUCUCUCCUAAGGCGAAGACUGCGGGUUCGAGUCCCGUACGGAACG [U7G A21U C30U A40C]              ≤         0.5
35  GUUCCGUUGGCGUAAUGGUAACGCGUCUCCCUCCUAAGGAGAGGACUGCGGGUUCGACUCCUGUACGGAACG [A43G G58C C62U]              =       0.537
36  GUUCCGUUGGCGUAAUGGUAACGCGUCUCUCUCCUAAGGAGAAGACUGAGGGUUCGAGUCCCGUACGGAACG [C30U C49A]              =       0.547
37  GUUCGGUUGGCGUAAUGGUAACGCGUCUCCCUCCUAAGGAGCAGACUGCGGGUUCGAGUCCCGUACGGAACG [C5G A42C]              =       0.814
38  GUUCCGUUGGCGAAAUGGUAACGCGUCUCCCUCUUGAGGAGAAGACUGCGGGUUCGAGUCCCGUACGGAACG [U13A C34U A36G]              ≤         0.5
39  GUUCCGUUGGCGUAAUGGGAACGCGUCUCCCUCCUAAGGAGAAGACUGCUGGUUCGAAUCCCGUAUGGAACG [U19G G50U G58A C66U]              =       0.541
40  GUUCCGUUGGCGAAAUGGUAACGCGUCUCUCUCCUAAGCAGAAGACUGCGGGUUGGAGUCCCGUACGGAACG [U13A C30U G39C C55G]              =       0.545
41  GUUCCGUUGGCGUAAUGGUAACGCGUCUCCCUGCUAAGGAGGAGACUGCGGAUUCGAGUCCCGUACGGAUCG [C33G A42G G52A A70U]              ≤         0.5
42  GUUCCGUUGGCGUAAUGGUAACGCGUGUCCCUCCUAUGGAGAAGACUGGGGGUUCGAGUCCCGUACGGAACG [C27G A37U C49G]              ≤         0.5
43  GUUCCGUUGGCGUAAUGGUAACGGGUCUCCCUCCUAAGGAGAAGACUGCGGGGUCGAGUCCCGUACGGAACG [C24G U53G]              ≤         0.5
44  GUUCCGUUGGCGUAAUGGUAACGCGUCUCCUUUCUAAGGUGAAGGCUGCGGGUUCGAGUCCCGUACGGAACG [C31U C33U A40U A45G]              =       0.575
45  GUUCCAUUGGCGUAAUGGUAACGCGUCUCCCUGGUAAGGAGAAGACUGCGGGUUCGAGUCCCGUACGGUACG [G6A C33G C34G A69U]              ≤         0.5
